Data credit: the supplement of paper PMC10567573

# Test description: protein stability index of a GFP-peptide fusion (GPS, HEK-293T) (PSI 1-6); higher = more stable;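 also: 24-mer peptide tiles fused after GFP, lentivirally expressed, FACS-sorted into six equal bins by GFP/DsRed ratio, decoded by Illumina sequencing, PSI is the read-weighted mean bin number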
# Measurement conditions: treatment: DMSO; c terminus: a fixed tail appended
Measured endpoint: protein stability index
Please state the value as a number alone, without comment.

Examples from the recorded data:
Input sequence	protein stability index
IDEIISLESSYNDEMLSYLPGGTT [TFE3]	3.96
VGSLPVIVVGRLKVALEPQLWELG [LPCAT4]	2.74

// protein stability index lookup, key: IFEPPVRNSGIIGGKYLGRTKVVK [EFHC1]
3.42

Tell me the measured protein stability index of ERDIEIGFLPWLMNEVEKTMEYSM [RSPH3] , please.
2.41

Entry SARDASPTPSTDAEYPANGSGADR [NCK2] has what protein stability index?
5.51

Give the measured protein stability index of FFFRHGHRGLLTMQLKSPMPSSTT [SPAG8] .
2.14

Which measured protein stability index value corresponds to IQYEMEYTEGISQRMRVPEKLKVA [MFF] ?
2.98

What does the data say about its protein stability index? Entry: GHNSPLYKRQEESGAAASLNVDAA [CHIT1]
5.19

Requested read-out: protein stability index. Entry: CLVKGIFYHCSNDDEGDSYSDNPC [SPRY1]
2.61

Please report the recorded protein stability index for HNSINQSLDESVIYGPGNLSTNNN [SLC2A12] .
4.68

Dear colleague, I am looking for the recorded protein stability index of the following sequence: GPQLEGEKDWGLEGYVWRGSQLED [ZSWIM9]
4.52

Entry under review: LLTRKVICKSDAPTGDVLLDEALK [GOLPH3] . Reported protein stability index?
2.51

What measured protein stability index goes with QLIVTARTTRGLDPLFGMCEKFLQ [INTS4] ?
2.15

Quick one: protein stability index for NRVVVSGLPPSGSWQDLKDHMREA [SRSF1] ?
3.93

State the recorded protein stability index for this entry: QDLCCRTIVSCTPVHLVDKLPLPS [RAB40A]
2.34

Reported protein stability index for QFLKELLLKPHSYGRFIRWLNKEK [SPDEF] : what is it?
2.28

Consider the sequence shown here: EPNTFSPANVDASVMFRKWRDSKG [UBE2R2] What is its recorded protein stability index?
4.16

Report protein stability index for GGGSGSAPGPSRIADYLLLPLAER [TRIB1] please.
3.62

Request the reported protein stability index associated with AQQLLCDEQAPQRQRLLADLLHNV [DFFB]
3.98
